Hello, the source for this data is patent US20240051958A1, in case you need it.

Assay: Pharmacokinetic Profile Evaluation (mouse PK)
Type: in vivo, CD-1 mice
Conditions: CD-1, plasma, oral administration at 5 mg/kg
outcomeMeasure: half-life (min)
The answer is to be given in min; state only the numeric part.

Some solved entries appear below for comparison.
molecule: Cn1c(=O)cc(N2CCC(c3nc4cc(F)ccc4o3)CC2)c2nc(C#N)ccc21 [Example 12]
outcomeMeasure: half-life
recordedMeasurement: 214
//
molecule: Cc1ccc2oc(C3CCN(c4cc(=O)n(C)c5cc(OCCO)c(C#N)nc45)CC3)nc2c1 [Example 23]
outcomeMeasure: half-life
recordedMeasurement: 211
//
molecule: Cc1ccc2oc(C3CCN(c4cc(=O)n(C)c5ccc(C#N)nc45)CC3)nc2c1 [Example 1]
outcomeMeasure: half-life
recordedMeasurement: 87.6

Query: Reported half-life, molecule Cc1ccc2oc(C3CCN(c4cc(=O)n(C)c5cc(O[C@@H]6CCOC6)c(C#N)nc45)CC3)nc2c1 [Example 28] : ____
Response: 160

====

Assay: Pharmacokinetic Profile Evaluation (mouse PK)
Format: in vivo, CD-1 mice
Details: CD-1, plasma, oral administration at 5 mg/kg
Measured AUC(0-inf) of individual entries
Field: numeric (ng·h/mL). Do not append units.

Some compounds with known AUC(0-inf) results, for comparison:
compound: Cc1ccc2oc(C3CCN(c4cc(=O)n(C)c5cc(O[C@@H]6CCOC6)c(C#N)nc45)CC3)nc2c1 [Example 28]
outcomeMeasure: AUC(0-inf)
recordedMeasurement: 3460

compound: Cn1c(=O)cc(N2CCC(c3nc4cc(F)ccc4o3)CC2)c2nc(C#N)ccc21 [Example 12]
outcomeMeasure: AUC(0-inf)
recordedMeasurement: 5940

compound: Cc1ccc2oc(C3CCN(c4cc(=O)n(C)c5ccc(C#N)nc45)CC3)nc2c1 [Example 1]
outcomeMeasure: AUC(0-inf)
recordedMeasurement: 6150

Consider the record given below.
Query: Which AUC(0-inf) value belongs to Cc1ccc2oc(C3CCN(c4cc(=O)n(C)c5cc(OCCO)c(C#N)nc45)CC3)nc2c1 [Example 23] ?
Response: 12100

====

Assay: Pharmacokinetic Profile Evaluation (mouse PK)
Type: in vivo, CD-1 mice
Settings: CD-1, plasma, oral administration at 5 mg/kg
# Cmax annotations
Your answer is read as ng/mL, so omit the unit and give the number.

Completed entries (count: 3):
moleculeSmiles: Cc1ccc2oc(C3CCN(c4cc(=O)n(C)c5cc(O[C@@H]6CCOC6)c(C#N)nc45)CC3)nc2c1
unitsLabel: ng/mL
Cmax: 677
//
moleculeSmiles: Cc1ccc2oc(C3CCN(c4cc(=O)n(C)c5ccc(C#N)nc45)CC3)nc2c1
unitsLabel: ng/mL
Cmax: 1880
//
moleculeSmiles: Cc1ccc2oc(C3CCN(c4cc(=O)n(C)c5cc(OCCO)c(C#N)nc45)CC3)nc2c1
unitsLabel: ng/mL
Cmax: 1820

Query: # input molecule: `Cn1c(=O)cc(N2CCC(c3nc4cc(F)ccc4o3)CC2)c2nc(C#N)ccc21` ; wanted: its Cmax
Response: 1100

====

Biological target: DGKA (Homo sapiens (Human), UniProt P23743)
Sequence (P23743 whole entry): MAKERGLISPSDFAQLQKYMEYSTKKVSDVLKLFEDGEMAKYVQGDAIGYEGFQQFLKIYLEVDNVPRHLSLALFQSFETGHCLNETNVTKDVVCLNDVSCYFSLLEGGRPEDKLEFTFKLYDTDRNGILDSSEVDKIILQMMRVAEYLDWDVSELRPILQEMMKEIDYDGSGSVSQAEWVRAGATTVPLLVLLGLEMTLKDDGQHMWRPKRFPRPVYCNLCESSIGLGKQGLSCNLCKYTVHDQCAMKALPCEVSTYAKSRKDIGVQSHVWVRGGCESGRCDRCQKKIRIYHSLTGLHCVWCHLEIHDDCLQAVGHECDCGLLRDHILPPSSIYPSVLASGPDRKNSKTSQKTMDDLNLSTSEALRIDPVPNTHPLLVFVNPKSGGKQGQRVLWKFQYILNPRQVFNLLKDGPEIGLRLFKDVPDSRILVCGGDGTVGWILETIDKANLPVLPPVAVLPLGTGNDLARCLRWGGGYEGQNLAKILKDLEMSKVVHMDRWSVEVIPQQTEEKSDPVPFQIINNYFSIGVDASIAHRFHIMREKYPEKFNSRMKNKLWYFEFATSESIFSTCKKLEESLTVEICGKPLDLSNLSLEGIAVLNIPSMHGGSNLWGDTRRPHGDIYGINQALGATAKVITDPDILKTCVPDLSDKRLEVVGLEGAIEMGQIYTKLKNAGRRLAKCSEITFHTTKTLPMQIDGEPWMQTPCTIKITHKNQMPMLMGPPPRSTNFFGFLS
pIC50: −log10 of the molar value.
Threshold check on pIC50: at or above 9 gives Fulfilled, strictly below gives Not fulfilled.

Answered examples (5):
compound: Cc1ccc2oc(C3CCN(c4nc(=O)n(C)c5ccc(C#N)nc45)CC3)nc2c1 [Example 14]
discreteLabel: Not fulfilled
//
compound: Cc1ccc2oc(C3CCN(c4cc(=O)n(C)c5cc(OC6CCOC6)c(Cl)nc45)CC3)nc2c1 (centres unmarked) [Example 20]
discreteLabel: Fulfilled
//
compound: Cc1ccc2oc(C3CCN(c4cc(=O)n(C)c5cc(OC6CCOCC6)c(C#N)nc45)CC3)nc2c1 [Example 25]
discreteLabel: Not fulfilled
//
compound: COCCOc1cc2c(nc1C#N)c(N1CCC(c3nc4cc(C)ccc4o3)CC1)cc(=O)n2C [Example 16]
discreteLabel: Fulfilled
//
compound: Cc1ccc2oc(C3CCN(c4cc(=O)n(C)c5ccc(C#N)cc45)CC3)nc2c1 [Example 3]
discreteLabel: Not fulfilled

Query: Exam item: decide whether the reported pIC50 for Cc1ccc2oc(C3CCN(c4nc(=O)n(C)c5ccc(F)cc45)CC3)nc2c1 [Example 7] is at least 9.
Response: Not fulfilled

Query: Is the recorded value of pIC50 equal to or greater than 9 for this compound? Cc1ccc2oc(C3CCN(c4cc(=O)n(C)c5cc(OCCO)c(C#N)nc45)CC3)nc2c1 [Example 23]
Response: Fulfilled

Query: Quick check: does Cc1ccc2oc(C3CCN(c4nc(=O)n(C)c5ccc(Cl)nc45)CC3)nc2c1 [Example 13] have pIC50 greater than or equal to 9?
Response: Not fulfilled

Query: Check if pIC50 >= 9 (inclusive). Item: COCCOc1cc2c(nc1Cl)c(N1CCC(c3nc4cc(C)ccc4o3)CC1)cc(=O)n2C [Example 15]
Response: Fulfilled

Query: Please tell me: is the compound Cc1ccc2oc(C3CCN(c4cc(=O)n(C)c5cc(OCCN)c(C#N)nc45)CC3)nc2c1 [Example 26] at or over 9 in terms of pIC50?
Response: Not fulfilled

Query: Evaluate Cc1ccc2oc(C3CCN(c4cc(=O)n(C)c5cc(NCCO)cnc45)CC3)nc2c1 [Example 19] : pIC50 at minimum 9?
Response: Not fulfilled

Query: Given Cc1ccc2oc(C3CCN(c4nc(=O)n(C)c5ccc(Cl)cc45)CC3)nc2c1 [Example 4] , state whether its pIC50 is at least 9.
Response: Not fulfilled

Query: Is pIC50 at least 9? Consider Cc1ccc2oc(C3CCN(c4cc(=O)n(C)c5cc(OC6CCNC6)c(C#N)nc45)CC3)nc2c1 (centres unmarked) [Example 27]
Response: Not fulfilled

====

System: UniProt P23743 | Read-out: IC50
Provide only the numeric value, understood in nM.

compound: Cc1ccc2oc(N3CC=C(c4cc(=O)n(C)c5cc(OCCO)c(C#N)nc45)CC3)nc2c1
unitsLabel: nM
IC50: 0.65

Query: Write down the reported IC50 of `Cn1c(=O)cc(N2CCC(c3nc4cc(F)ccc4o3)CC2)c2nc(C#N)ccc21` , test system: UniProt P23743.
Response: 1.35

Query: Lab note: need IC50 for `Cc1ccc2oc(C3CCN(c4cc(=O)n(C)c5cc(OCCO)c(Cl)nc45)CC3)nc2c1` on UniProt P23743, anyone have it?
Response: 0.15

Query: Give IC50 (UniProt P23743) of the following compound: Cc1ccc2oc(C3CCN(c4cc(=O)n(C)c5cc(OC6CCOC6)c(C#N)nc45)CC3)nc2c1 (stereo not shown)
Response: 0.23

Query: Tell me reported IC50 for `Cc1ccc2oc(C3CCN(c4cc(=O)n(C)c5cc(NCCO)c(Cl)nc45)CC3)nc2c1` , tested with UniProt P23743.
Response: 0.12

Query: Given the entry `Cc1ccc2oc(N3[C@@H]4CC[C@H]3CN(c3c(C#N)c(=O)n(C)c5ccc(F)cc35)C4)nc2c1` , what IC50 was observed with UniProt P23743?
Response: 7.74

Query: # value lookup — system UniProt P23743, readout IC50, item `Cc1ccc2oc(C3CCN(c4cc(=O)n(C)c5ccc(F)cc45)CC3)nc2c1`
Response: 1.23
